# credit: patent US20240287042A1

- Target or system: human wild-type (WT)-pendrin (Homo sapiens, UniProt O43511)
- Construct: expressed in transfected cells
- Sequence (O43511 1-780): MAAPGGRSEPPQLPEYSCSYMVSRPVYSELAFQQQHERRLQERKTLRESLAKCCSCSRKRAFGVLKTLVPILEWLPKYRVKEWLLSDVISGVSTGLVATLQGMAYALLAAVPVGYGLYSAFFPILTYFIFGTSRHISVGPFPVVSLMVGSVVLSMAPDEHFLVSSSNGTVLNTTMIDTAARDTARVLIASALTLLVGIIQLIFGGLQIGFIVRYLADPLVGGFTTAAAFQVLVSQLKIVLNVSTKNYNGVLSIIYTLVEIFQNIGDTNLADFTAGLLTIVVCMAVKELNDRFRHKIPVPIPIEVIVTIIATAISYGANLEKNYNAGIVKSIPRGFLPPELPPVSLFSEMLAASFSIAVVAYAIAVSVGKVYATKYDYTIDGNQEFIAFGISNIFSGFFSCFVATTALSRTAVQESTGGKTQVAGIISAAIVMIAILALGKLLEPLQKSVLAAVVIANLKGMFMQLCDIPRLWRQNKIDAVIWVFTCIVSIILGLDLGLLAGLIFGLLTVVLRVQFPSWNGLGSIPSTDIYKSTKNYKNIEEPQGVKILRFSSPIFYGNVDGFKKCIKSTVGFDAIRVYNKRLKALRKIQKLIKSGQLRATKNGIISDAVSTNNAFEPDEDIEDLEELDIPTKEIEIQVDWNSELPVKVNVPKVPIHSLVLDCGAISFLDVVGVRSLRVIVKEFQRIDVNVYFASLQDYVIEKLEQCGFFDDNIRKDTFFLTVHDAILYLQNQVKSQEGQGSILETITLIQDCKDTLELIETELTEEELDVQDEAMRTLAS
- Test protocol: Pendrin Cl−/I− exchange inhibitory activity, YFP fluorescence in CHO-K1 cells
- Type: cell-based
- Setup conditions: CHO-K1; compound concentration 10 μM
Quantity measured: inhibition at 10 µM

>  <Molecule>
O=C(O)c1[nH]c2ccc(Cl)cc2c1CC(=O)N1CCN(c2ccccc2F)CC1

>  <Data value>
< 20%

$$$$
>  <Molecule>
COc1ccc(N2CCN(C(=O)Cc3c(C(=O)O)[nH]c4ccc(Cl)cc34)CC2)cc1

>  <Data value>
< 20%

$$$$
>  <Molecule>
O=C(O)c1[nH]c2ccc(Cl)cc2c1CC(=O)N1CCN(c2ccc(F)cc2F)CC1

>  <Data value>
< 20%

$$$$
>  <Molecule>
CC(=O)c1ccc(N2CCN(C(=O)Cc3c(C(=O)O)[nH]c4ccc(Cl)cc34)CC2)cc1

>  <Data value>
< 20%

$$$$
>  <Molecule>
CC(C)(C)OC(=O)N1CCN(C(=O)Cc2c(C(=O)O)[nH]c3ccc(Cl)cc23)CC1

>  <Data value>
< 20%

$$$$

Report inhibition at 10 µM for `O=C(O)c1ccc(N2CCN(C(=O)Cc3c(C(=O)O)[nH]c4ccc(Cl)cc34)CC2)cc1`
< 20%

// Input: `CCOc1ccc(N2CCN(C(=O)Cc3c(C(=O)O)[nH]c4ccc(Cl)cc34)CC2)cc1` . Output its inhibition at 10 µM only.
< 20%

Indicate the recorded inhibition at 10 µM value for this molecule: CC1CN(C(=O)Cc2c(C(=O)O)[nH]c3ccc(Cl)cc23)CCN1c1ccccc1 (stereo not drawn)
< 20%

====

- Target or system: human wild-type (WT)-pendrin (Homo sapiens, UniProt O43511)
- Construct: expressed in transfected cells
- Test protocol: Pendrin Cl−/I− exchange inhibitory activity, YFP fluorescence in CHO-K1 cells
- Format: cell-based
- Setup conditions: CHO-K1; compound concentration 100 μM
Quantity measured: inhibition at 100 µM

Below, 2 compounds whose answers are already recorded.
>  <Compound>
O=C(O)c1ccc(N2CCN(C(=O)Cc3c(C(=O)O)[nH]c4ccc(Cl)cc34)CC2)cc1 [YPI-A4919]

>  <Data value>
< 20%

$$$$
>  <Compound>
CC1CN(C(=O)Cc2c(C(=O)O)[nH]c3ccc(Cl)cc23)CCN1c1ccccc1 (stereo not drawn) [YPI-A4883]

>  <Data value>
< 20%

$$$$

// moving on: another record for inhibition at 100 µM
Give the value of inhibition at 100 µM reported for the following: CC(C)(C)OC(=O)N1CCN(C(=O)Cc2c(C(=O)O)[nH]c3ccc(Cl)cc23)CC1 [YPI-A4879]
< 20%

====

- Target or system: human wild-type (WT)-pendrin (Homo sapiens)
- Construct: expressed in transfected cells
- Test protocol: Pendrin Cl−/I− exchange inhibitory activity, YFP fluorescence in CHO-K1 cells
- Assay type: cell-based
- Setup conditions: CHO-K1; compound concentration 30 μM
In this section we review reported inhibition at 30 µM values for a set of compounds.

>  <Compound>
CCOc1ccccc1N1CCN(C(=O)Cc2c(C(=O)O)[nH]c3ccc(Cl)cc23)CC1 [YPI-A4882]

>  <Quantity measured>
inhibition at 30 µM

>  <Data value>
< 20%

$$$$
>  <Compound>
COc1ccc(N2CCN(C(=O)Cc3c(C(=O)O)[nH]c4ccc(Cl)cc34)CC2)cc1 [YPI-A4878]

>  <Quantity measured>
inhibition at 30 µM

>  <Data value>
< 20%

$$$$

Query compound follows.
Kindly indicate its recorded inhibition at 30 µM. Item: O=C(O)c1ccc(N2CCN(C(=O)Cc3c(C(=O)O)[nH]c4ccc(Cl)cc34)CC2)cc1 [YPI-A4919]
< 20%

====

- Target or system: human wild-type (WT)-pendrin (Homo sapiens)
- Construct: expressed in transfected cells
- Test protocol: Pendrin Cl−/I− exchange inhibitory activity, YFP fluorescence in CHO-K1 cells
- Type: cell-based
- Setup conditions: CHO-K1; compound concentration 10 μM
Quantity measured: inhibition at 10 µM (%)
Report the value in % with no unit label.

Examples with answers:
>  <Compound>
Cc1ccc2[nH]c(C(=O)O)c(CC(=O)N3CCN(c4c(C)cccc4Cl)CC3)c2c1 [YPI-A4948]

>  <inhibition at 10 µM [%]>
100

$$$$
>  <Compound>
Cc1cc(C)c2[nH]c(C(=O)O)c(CC(=O)N3CCN(c4c(C)cccc4Cl)CC3)c2c1 [YPI-A4949]

>  <inhibition at 10 µM [%]>
78.9

$$$$
>  <Compound>
Cc1ccccc1N1CCN(C(=O)Cc2c(C(=O)O)[nH]c3ccc(Cl)cc23)CC1 [YPI-A4847]

>  <inhibition at 10 µM [%]>
60.6

$$$$

Note down inhibition at 10 µM recorded for O=C(O)c1[nH]c2ccc(Cl)cc2c1CC(=O)N1CCN(c2ccc(Br)cc2)CC1 [YPI-A4846]
73.3

Name the recorded inhibition at 10 µM of the item O=C(O)c1[nH]c2ccc(Cl)cc2c1CC(=O)N1CCN(c2ccc(C(F)(F)F)cc2)CC1 [YPI-A4779] in your answer.
66.7

====

A collection of compounds and their measured inhibition at 10 µM
- Target or system: human wild-type (WT)-pendrin (Homo sapiens, UniProt O43511)
- Construct: expressed in transfected cells
- Test protocol: Pendrin Cl−/I− exchange inhibitory activity, YFP fluorescence in CHO-K1 cells
- Assay type: cell-based
- Setup conditions: CHO-K1; compound concentration 10 μM
Write the number in % without appending the unit.

>  <Compound>
O=C(O)c1[nH]c2ccc(Cl)cc2c1CC(=O)N1CCN(c2ccccc2Cl)CC1 [YPI-A4803]

>  <Quantity measured>
inhibition at 10 µM

>  <Data value>
39.4

$$$$
>  <Compound>
Cc1cccc(N2CCN(C(=O)Cc3c(C(=O)O)[nH]c4ccc(Cl)cc34)CC2)c1C [YPI-A4799]

>  <Quantity measured>
inhibition at 10 µM

>  <Data value>
94.2

$$$$

From here, focus on the item given below.
Determine from records and report inhibition at 10 µM for COc1ccc(Cl)c(N2CCN(C(=O)Cc3c(C(=O)O)[nH]c4ccc(Cl)cc34)CC2)c1 [YPI-A4886]
33.7
